# test-summary: Pharmacokinetic study, oral and i.v. route
# Format: in vivo, swiss mice
# measurement-conditions: both sexes, Swiss, mouse, plasma, po, 20 mg/kg, mice
reported-metric: Tmax (h)
Give the value in h but do not write h after it.

## Task If you can, please state the reported Tmax value of COc1ccc(C(c2[nH]c3ccccc3c2CC(=O)O)c2[nH]c3ccccc3c2CC(=O)O)cc1Oc1nc(NC2CC2)nc(NC2CC2)n1 [Compound 7] .
## Result 3

* * *

# test-summary: Pharmacokinetic study, oral and i.v. route
# Assay type: in vivo, swiss mice
# measurement-conditions: both sexes, Swiss, mouse, plasma, iv, 10 mg/kg, mice, i.v., 10 mg/kg; read-out: T ½ (converted)
reported-metric: half-life
Units required after the number.

## Task May I ask what half-life has been recorded for COc1ccc(C(c2[nH]c3ccccc3c2CC(=O)O)c2[nH]c3ccccc3c2CC(=O)O)cc1Oc1nc(NC2CC2)nc(NC2CC2)n1 [Compound 7] ?
## Result 55.8 min

* * *

# test-summary: Balb/c 3T3 Neutral Red Uptake (NRU) cytotoxicity assay
# Type: cell-based
# measurement-conditions: mouse
reported-metric: IC50 at 48 h (µg/mL)
Your answer is read as µg/mL, so omit the unit and give the number.

## Task Can you look up the measured IC50 at 48 h of COc1ccc(C(c2[nH]c3ccccc3c2CC(=O)O)c2[nH]c3ccccc3c2CC(=O)O)cc1Oc1nc(NC2CC2)nc(NC2CC2)n1 [Compound 7] for me?
## Result 32

* * *

Consider the following compounds and their measured Inhibition % readings.
# System: PDE-4
# test-summary: Phosphodiesterase 4 assay ([3H]cAMP SPA), enzyme preparation from rat heart
# Format: biochemical
# measurement-conditions: PDE-4 activity, dose 10 μg/ml
Write the value in % as a bare number.

[[record]]
compound = "COc1cc(C(c2[nH]c3ccccc3c2CC(=O)O)c2[nH]c3ccccc3c2CC(=O)O)ccc1Oc1nc(Nc2ccccc2)nc(Nc2ccccc2)n1"
test_result = 31

[[record]]
compound = "COc1ccc(C(c2[nH]c3ccccc3c2CC(=O)O)c2[nH]c3ccccc3c2CC(=O)O)cc1Oc1nc(Nc2ccccc2)nc(Nc2ccccc2)n1"
test_result = 73

[[record]]
compound = "COc1cc(C=O)ccc1Oc1nc(NC2CC2)nc(NC2CC2)n1"
test_result = 29

[[record]]
compound = "COc1cc(C(c2cc3ccccc3[nH]2)c2cc3ccccc3[nH]2)ccc1Oc1nc(NC2CC2)nc(NC2CC2)n1"
test_result = 16

[[record]]
compound = "COc1ccc(C(c2[nH]c3ccccc3c2CC(=O)O)c2[nH]c3ccccc3c2CC(=O)O)cc1Oc1nc(NC2CC2)nc(NC2CC2)n1"
test_result = 60

[[record]]
compound = "Clc1nc(Nc2ccccc2)nc(Nc2ccccc2)n1"
test_result = 53


## Task Form entry - test system: PDE-4; read-out: Inhibition %; compound: `COc1cc(C=O)ccc1Oc1nc(Nc2ccccc2)nc(Nc2ccccc2)n1`
## Result 30

## Task Likewise for COc1ccc(C2CNC(=O)C2)cc1OC1CCCC1 (stereo not shown) [Rolipram, reference compound] ?
## Result 69

## Task Same again, this time with `COc1ccc(C(c2cc3ccccc3[nH]2)c2cc3ccccc3[nH]2)cc1Oc1nc(Nc2ccccc2)nc(Nc2ccccc2)n1`
## Result 45

## Task Input `COc1cc(C(c2[nH]c3ccccc3c2CC(=O)O)c2[nH]c3ccccc3c2CC(=O)O)ccc1Oc1nc(NC2CC2)nc(NC2CC2)n1`
## Result 42

## Task // query: `Clc1nc(NC2CC2)nc(NC2CC2)n1`
## Result 44

## Task And then `COc1cc(C(c2cc3ccccc3[nH]2)c2cc3ccccc3[nH]2)ccc1Oc1nc(Nc2ccccc2)nc(Nc2ccccc2)n1` , what is it?
## Result 34

## Task Query `COc1ccc(C(c2cc3ccccc3[nH]2)c2cc3ccccc3[nH]2)cc1Oc1nc(NC2CC2)nc(NC2CC2)n1` next
## Result 34
